Species on record: Rattus norvegicus
Experiment Summary: In vitro Growth hormone releasing activity in rat pituitary cells
Type: functional, Pituitary gland cell
Measurement Conditions: read-out: ED50 (the source's name)
Assay Readout: pEC50
Interpret pEC50 as the negative base-10 log of the concentration measured in mol/L.

CC(C)(N)CC(=O)N[C@@H]1CCc2ccccc2N(CC2=CCC(c3ccccc3-c3nn[nH]n3)CC2)C1=O (stereo in doubt; 35) : 6.92
C[C@@H](O)CNC(C)(C)CC(=O)N[C@@H]1CCc2ccccc2N(CC2=CCC(c3ccccc3-c3nn[nH]n3)CC2)C1=O (stereo in doubt; 37) : 8.15
C[C@@H](O)CNC(C)(C)CC(=O)N[C@@H]1CCc2ccccc2N(CC2=CCC(c3ccccc3-c3nn[nH]n3)CC2)C1=O (stereo in doubt; 36) : 7.60

Note: attention shifts to another entry.
### Prompt What does the record list as pEC50 for CC(C)(N)CC(=O)N[C@@H]1CCc2ccccc2N(CC2=CCC(c3ccccc3-c3nn[nH]n3)CC2)C1=O (stereo in doubt; 34) ?
### Response 5.92
